Reported pEC50 values for the following molecules.
system-name: UniProt P23975
Sequence (P23975 whole entry): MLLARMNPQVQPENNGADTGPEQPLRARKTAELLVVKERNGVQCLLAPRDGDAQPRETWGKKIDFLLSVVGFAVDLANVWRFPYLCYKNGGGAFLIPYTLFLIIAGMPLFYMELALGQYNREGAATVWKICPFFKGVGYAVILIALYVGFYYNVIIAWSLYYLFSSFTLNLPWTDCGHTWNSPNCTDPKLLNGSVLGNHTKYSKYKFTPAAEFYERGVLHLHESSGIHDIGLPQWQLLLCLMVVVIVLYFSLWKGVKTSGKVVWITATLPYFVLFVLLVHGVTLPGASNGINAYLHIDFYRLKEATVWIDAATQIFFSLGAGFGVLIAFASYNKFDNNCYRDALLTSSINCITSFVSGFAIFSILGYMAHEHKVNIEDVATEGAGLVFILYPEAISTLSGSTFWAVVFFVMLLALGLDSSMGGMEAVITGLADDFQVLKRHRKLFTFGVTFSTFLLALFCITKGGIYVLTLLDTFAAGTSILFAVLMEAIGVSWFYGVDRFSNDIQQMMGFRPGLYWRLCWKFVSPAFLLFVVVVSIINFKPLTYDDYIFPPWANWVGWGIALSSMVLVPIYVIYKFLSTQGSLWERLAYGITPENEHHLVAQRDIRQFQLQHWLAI
measurement-protocol: Substrate uptake inhibition in HEK-NET cells
measurement-context: human NET expressed in HEK293, substrate uptake
Source text: The human isoforms of DAT, SERT and NET were expressed in HEK293 (HEK-DAT, HEK-SERT and HEK-NET) cells. […]
By convention, pEC50 is the negative base-10 log of a molar concentration.

[O-][S+](Cc1cscn1)C(c1ccccc1)c1ccccc1 (centres unmarked): 3.26

Any idea what pEC50 was measured for [O-][S+](Cc1csc(C2CC2)n1)C(c1ccccc1)c1ccccc1 (centres unmarked) ?
3.11

###

// values below are reported pEC50
system-name: UniProt:Q01959
Sequence (Q01959 whole entry): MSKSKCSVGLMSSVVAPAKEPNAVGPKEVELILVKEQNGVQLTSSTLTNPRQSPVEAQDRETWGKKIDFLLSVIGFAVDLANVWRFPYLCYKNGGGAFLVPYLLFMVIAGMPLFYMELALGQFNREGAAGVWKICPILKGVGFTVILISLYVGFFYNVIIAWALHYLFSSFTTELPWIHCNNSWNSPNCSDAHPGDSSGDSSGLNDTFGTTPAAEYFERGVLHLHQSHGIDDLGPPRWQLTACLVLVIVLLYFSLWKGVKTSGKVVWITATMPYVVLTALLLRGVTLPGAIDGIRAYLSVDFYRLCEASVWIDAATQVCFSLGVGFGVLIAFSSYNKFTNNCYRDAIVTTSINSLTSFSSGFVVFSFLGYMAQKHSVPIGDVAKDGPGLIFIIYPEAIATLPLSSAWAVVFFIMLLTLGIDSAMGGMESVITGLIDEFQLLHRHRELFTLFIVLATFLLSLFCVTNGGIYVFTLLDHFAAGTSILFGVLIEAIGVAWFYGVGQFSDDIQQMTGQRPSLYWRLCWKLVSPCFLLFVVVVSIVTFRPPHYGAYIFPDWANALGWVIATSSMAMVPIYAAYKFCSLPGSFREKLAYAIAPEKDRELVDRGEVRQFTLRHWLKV
measurement-protocol: Substrate uptake inhibition in HEK-DAT cells
Scale for pEC50: -log10 of concentration given in mol/L; no unit attached.

Which pEC50 value belongs to [O-][S+](Cc1csc(C2CC2)n1)C(c1ccccc1)c1ccccc1 (centres unmarked) ?
5.39

# pEC50 lookup, item [O-][S+](Cc1cscn1)C(c1ccccc1)c1ccccc1 (centres unmarked)
5.14
